measurement-target: human TRPM8 (Homo sapiens)
Construct: A full-length human TRPM8 gene was amplified from human prostatic tissue total RNA; expressed in transfected cells; host or cells: HEK293
Sequence (Q7Z2W7 whole entry): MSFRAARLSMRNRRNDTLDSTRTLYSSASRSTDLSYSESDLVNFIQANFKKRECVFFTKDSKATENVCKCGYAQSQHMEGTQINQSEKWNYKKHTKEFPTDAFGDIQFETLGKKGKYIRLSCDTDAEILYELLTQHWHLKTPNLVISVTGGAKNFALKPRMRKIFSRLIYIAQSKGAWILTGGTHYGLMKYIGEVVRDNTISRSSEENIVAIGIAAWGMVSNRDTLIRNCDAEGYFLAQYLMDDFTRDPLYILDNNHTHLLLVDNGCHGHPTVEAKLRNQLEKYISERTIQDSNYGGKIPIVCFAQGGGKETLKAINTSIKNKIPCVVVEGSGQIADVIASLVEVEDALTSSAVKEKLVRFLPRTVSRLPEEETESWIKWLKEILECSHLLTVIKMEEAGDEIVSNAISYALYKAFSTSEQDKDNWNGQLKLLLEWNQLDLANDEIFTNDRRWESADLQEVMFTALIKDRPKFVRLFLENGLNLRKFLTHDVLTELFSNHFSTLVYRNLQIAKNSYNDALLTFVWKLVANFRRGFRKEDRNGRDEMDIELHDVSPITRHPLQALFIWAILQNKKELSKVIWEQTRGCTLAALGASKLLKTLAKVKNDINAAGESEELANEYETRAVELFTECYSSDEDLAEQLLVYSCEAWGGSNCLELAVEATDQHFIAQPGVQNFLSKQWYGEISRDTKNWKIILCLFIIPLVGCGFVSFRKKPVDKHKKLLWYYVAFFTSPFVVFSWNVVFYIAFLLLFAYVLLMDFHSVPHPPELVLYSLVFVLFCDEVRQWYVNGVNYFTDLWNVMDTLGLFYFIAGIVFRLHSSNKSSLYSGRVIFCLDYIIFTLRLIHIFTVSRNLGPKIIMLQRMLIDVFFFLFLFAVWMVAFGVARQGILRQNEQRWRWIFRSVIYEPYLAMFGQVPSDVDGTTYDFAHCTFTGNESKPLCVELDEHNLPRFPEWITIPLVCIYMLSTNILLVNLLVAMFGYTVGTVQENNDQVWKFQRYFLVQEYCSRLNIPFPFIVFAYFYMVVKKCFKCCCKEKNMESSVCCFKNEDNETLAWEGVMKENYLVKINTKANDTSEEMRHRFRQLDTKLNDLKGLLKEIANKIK
procedure-summary: TRPM8 activating action, fluorescent calcium imaging in HEK293 cell line stably expressing human TRPM8
Format: cell-based
experimental-parameters: HEK293 cells expressing human TRPM8; Fluo4 calcium imaging at 32° C.; 1 nM to 100 μM; Hill's equation fit
pEC50: −log10 of the molar value.
reported-endpoint: pEC50

>>> meas_value("C=CCc1cc(OC)c(OC(C)C(OCC)c2ccc(O)c(OC)c2)c(OC)c1 (single isomer, unassigned) [Erythro-form (1)]")
5.80
>>> meas_value("C=CCc1cc(OC)c(OC(C)C(OCCOCCCC)c2ccc(O)c(OC)c2)c(OC)c1 (centres unmarked) [Mixture (32)]")
6.88
>>> meas_value("C=CCc1cc(OC)c(OC(C)C(OC2CCCCC2)c2ccc(O)c(OC)c2)c(OC)c1 (centres unmarked) [Mixture (29)]")
7.35
>>> meas_value("C=CCc1cc(OC)c(O[C@@H](C)[C@@H](OCC)c2ccc(O)c(OC)c2)c(OC)c1 [7S8S-form (2b)]")
7.06
>>> meas_value("C=CCc1cc(OC)c(O[C@H](C)[C@H](OCC)c2ccc(O)c(OC)c2)c(OC)c1 [7R8R-form (2a)]")
6.21
>>> meas_value("C=CCc1cc(OC)c(OC(C)C(OC)c2ccc(O)c(OC)c2)c(OC)c1 (mixture of isomers) [Mixture (18)]")
5.62
>>> meas_value("C=CCc1ccc(OC(C)Cc2ccc(O)c(OC)c2)c(OC)c1 (centres unmarked) [Mixture (34)]")
5.23
>>> meas_value("C=CCc1cc(OC)c(OC(C)C(OCC)c2ccc(O)c(OC)c2)c(OC)c1 (single isomer, unassigned) [Threo-form (2)]")
6.70
>>> meas_value("C=CCc1cc(OC)c(OC(C)C(OCC)c2ccc(O)c(OC)c2)c(OC)c1 (centres unmarked) [Mixture (15)]")
6.51
>>> meas_value("C=CCc1cc(OC)c(O[C@H](C)[C@@H](OCC)c2ccc(O)c(OC)c2)c(OC)c1 [7S8R-form (1b)]")
6.01

[a] C=CCc1cc(OC)c(O[C@@H](C)[C@H](OCCCC)c2ccc(O)c(OC)c2)c(OC)c1 (relative stereo) [Erythro-form (19)]
[b] C=CCc1cc(OC)c(O[C@@H](C)[C@H](OC(C)=O)c2ccc(O)c(OC)c2)c(OC)c1 (relative stereo) [Erythro-form (23)]
INPUT: // which entry has the larger pEC50 value, a or b ? When you have decided, please share the label of that item.
OUTPUT: a
